All figures here come from paper PMC6832352.

Kindly supply the reported inhibition % values for the records listed here.
# Test system: β-Mannosidase
# run.description: glycosidase inhibition assay, snail β-mannosidase
# Type: biochemical
# cond: at 100 μM
# number only, unit % dropped from output

Challenge: Consider the molecule OCCC[C@@H](O)CCCCCCCCC[C@@H]1N[C@@H](CO)[C@@H](O)[C@H]1O [ent-3,10-di-epi-3] and give its measured inhibition %.
Response given: 2.3

Challenge: Consider next the molecule OCCC[C@@H](O)CCCCCCCCC[C@H]1N[C@H](CO)[C@@H](O)[C@@H]1O [compound 3] in the same way.
Response given: 1.7

Challenge: Consider next the molecule OCCC[C@H](O)CCCCCCCCC[C@@H]1N[C@@H](CO)[C@@H](O)[C@H]1O [ent-3-epi-3] in the same way.
Response given: 0

Challenge: Consider next the molecule OCCC[C@H](O)CCCCCCCCC[C@@H]1N[C@@H](CO)[C@H](O)[C@H]1O [ent-3] in the same way.
Response given: 0

Challenge: Consider next the molecule OCCC[C@@H](O)CCCCCCCCC[C@@H]1N[C@@H](CO)[C@H](O)[C@H]1O [ent-10’-epi-3] in the same way.
Response given: 2.0

Challenge: Consider next the molecule OCCC[C@H](O)CCCCCCCCC[C@H]1N[C@H](CO)[C@@H](O)[C@@H]1O [10’-epi-3] in the same way.
Response given: 0

Challenge: Consider next the molecule OCCCC(O)CCCCCCCCCC1NC(CO)C(O)C1O (stereo not drawn) [2,10-di-epi-3] in the same way.
Response given: 0

Challenge: Consider next the molecule OCCC[C@@H](O)CCCCCCCCC[C@H]1N[C@@H](CO)[C@@H](O)[C@@H]1O [2-epi-3] in the same way.
Response given: 0

###

Kindly supply the reported inhibition at 100 µM values for the records listed here.
# system.tested: α-Glucosidase (Oryza sativa subsp. japonica, UniProt Q653V7)
# Construct: purchased Sigma-Aldrich Chemical Co
# Sequence (Q653V7 34-885): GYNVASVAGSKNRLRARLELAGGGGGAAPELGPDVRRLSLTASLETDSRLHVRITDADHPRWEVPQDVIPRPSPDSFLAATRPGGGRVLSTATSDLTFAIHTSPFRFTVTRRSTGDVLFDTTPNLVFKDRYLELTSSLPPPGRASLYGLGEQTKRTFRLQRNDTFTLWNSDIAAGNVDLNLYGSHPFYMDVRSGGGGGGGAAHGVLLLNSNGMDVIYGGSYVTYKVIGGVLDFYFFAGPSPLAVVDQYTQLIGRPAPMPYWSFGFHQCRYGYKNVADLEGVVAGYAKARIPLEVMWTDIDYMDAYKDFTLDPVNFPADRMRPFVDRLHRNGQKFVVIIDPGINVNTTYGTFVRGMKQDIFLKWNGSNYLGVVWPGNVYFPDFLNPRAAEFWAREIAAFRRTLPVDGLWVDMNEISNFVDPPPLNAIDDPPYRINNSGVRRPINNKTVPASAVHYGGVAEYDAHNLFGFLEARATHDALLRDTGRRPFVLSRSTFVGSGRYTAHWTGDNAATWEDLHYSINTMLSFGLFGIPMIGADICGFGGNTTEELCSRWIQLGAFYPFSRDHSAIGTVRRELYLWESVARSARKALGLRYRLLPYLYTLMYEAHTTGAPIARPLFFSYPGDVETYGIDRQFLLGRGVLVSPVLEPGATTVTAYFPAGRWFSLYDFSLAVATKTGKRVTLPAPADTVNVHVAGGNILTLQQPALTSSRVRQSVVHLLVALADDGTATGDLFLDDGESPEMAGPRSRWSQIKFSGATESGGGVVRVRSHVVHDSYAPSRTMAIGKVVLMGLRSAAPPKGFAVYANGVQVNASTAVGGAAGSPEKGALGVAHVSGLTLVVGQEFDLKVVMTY
# run.description: glycosidase inhibition assay, rice α-glucosidase
# Type: biochemical
# cond: at 100 μM; α-Glucosidase, Rice
# Procedure: With rat intestinal maltase as an exception, other enzymes were purchased from Sigma-Aldrich Chemical Co. (St. Louis, Mo. USA). […] The released D-glucose was determined colorimetrically using the Glucose CII-test Wako (Wako Pure Chemical Ind.; Osaka, Japan). Other glycosidase activities were determined using an appropriate p-nitrophenyl glycoside as substrate in a buffer solution at the optimal pH value of each enzyme. […] The released p-nitrophenol was measured spectrometrically at 400 nm.
Report field: quantity (unit follows the number).

Challenge: inhibition at 100 µM of OCCC[C@@H](O)CCCCCCCCC[C@H]1N[C@@H](CO)[C@@H](O)[C@@H]1O [2-epi-3] on α-Glucosidase (Oryza sativa subsp. japonica, UniProt Q653V7)?
Response given: 5.6%

Challenge: Consider next the compound OCCC[C@H](O)CCCCCCCCC[C@@H]1N[C@@H](CO)[C@@H](O)[C@H]1O [ent-3-epi-3] in the same way.
Response given: 23%

Challenge: Consider next the compound OCCC[C@@H](O)CCCCCCCCC[C@H]1N[C@H](CO)[C@@H](O)[C@@H]1O in the same way.
Response given: 0%

Challenge: Consider next the compound OCCC[C@H](O)CCCCCCCCC[C@H]1N[C@H](CO)[C@@H](O)[C@@H]1O [10’-epi-3] in the same way.
Response given: 0%

Challenge: Consider next the compound OCCC[C@@H](O)CCCCCCCCC[C@@H]1N[C@@H](CO)[C@@H](O)[C@H]1O [ent-3,10-di-epi-3] in the same way.
Response given: 9.5%
